// provenance: the RNAGym collection of RNA variant scans (doi:10.7554/elife.80360)

Listing of recorded self-cleavage by entry.
B1: Twister Ribozyme (parent)
chain: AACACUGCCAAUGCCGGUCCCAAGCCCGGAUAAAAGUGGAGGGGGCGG

- Variants of: B1
- test name: self-cleavage, relative activity (ratio to wild type); higher = more cleavage; co-transcriptional

| polymer sequence | self-cleavage |
| --- | --- |
| AAAACUGCCAAUGCCGGUCCCACGCCCGGAUAAAAGUGGAGGGGGCGG [C3A A23C] | 0.0997 |
| AAAACUGCCAAUGCCGGUCCCAAGCCCGGAUAAAAGUGUAGGGGGCGG [C3A G39U] | 0.0737 |
| GACACUGCCAAUGCCGGUCCCAAGACCGGAUAAAAGUGGAGGGGGCGG [A1G C25A] | 0.197 |
| AACACUGCCAUUGCCCGUCCCAAGCCCGGAUAAAAGUGGAGGGGGCGG [A11U G16C] | 0.532 |
| AACACUGCCAAGGCCGGACCCAAGCCCGGAUAAAAGUGGAGGGGGCGG [U12G U18A] | 0.46 |
| AAUACUGCCAAUGCCGGUCCCAAGCCAGGAUAAAAGUGGAGGGGGCGG [C3U C27A] | 0.159 |
| AACACAGCCCAUGCCGGUCCCAAGCCCGGAUAAAAGUGGAGGGGGCGG [U6A A10C] | 1.19 |
| AACACUGCCAUUGCCGUUCCCAAGCCCGGAUAAAAGUGGAGGGGGCGG [A11U G17U] | 0.264 |
| AACACUGCCUAUGCCGGUCCCAAGCCCGGUUAAAAGUGGAGGGGGCGG [A10U A30U] | 0.922 |
| AACACUGCCAAUGCCGGUCCCAAGCCCGGAUAGAAGUGGAGGGGGCGA [A33G G48A] | 0.856 |
| AACACCGCCAAUGCCGGUCCCAAGCCCGGAUAAAAGUAGAGGGGGCGG [U6C G38A] | 0.423 |
| AACACUGCCAAUGCCUGUCCCAAGCCCGGAUAAAAGUGGAUGGGGCGG [G16U G41U] | 0.35 |
| AACACUGCCAAUGCCGGUCCCAAGCCCGGCUAAAAGUCGAGGGGGCGG [A30C G38C] | 0.732 |
| AACACUGCCAAUGCCGGUCCCAAGCCCGGAUAAACGUGGAGGCGGCGG [A35C G43C] | 0.206 |
| AAUACUUCCAAUGCCGGUCCCAAGCCCGGAUAAAAGUGGAGGGGGCGG [C3U G7U] | 0.0522 |
| AACACUGCCAAUGCCUGUCCCAAGCCCGGAUAAAAGUGGAGGGGACGG [G16U G45A] | 0.608 |
| AACACCGCCAAUGCCGGUCCCAAGCCCGGAUAACAGUGGAGGGGGCGG [U6C A34C] | 0.18 |
| AACACUGCCAAUGCCGGUCCCUAGCCCGGAUAAAAGUGGAGGGAGCGG [A22U G44A] | 0.788 |
| AACACUGCCAAUGCCGGUCCCAAGCCCGGAUAAAGGUCGAGGGGGCGG [A35G G38C] | 0.632 |
| AACACUGCCAAUGCCGGUCCCAACCCCGGAUAAGAGUGGAGGGGGCGG [G24C A34G] | 0.103 |
| AACACGGCCAAUGCCGGUCCCAAUCCCGGAUAAAAGUGGAGGGGGCGG [U6G G24U] | 0.145 |
| AACCCUGCCAAUGCCGGUCCCAAGCCCGGAUAAAAGUGGAGGGGCCGG [A4C G45C] | 0.16 |
| AACACUGCCAAUGCCGGUUCCCAGCCCGGAUAAAAGUGGAGGGGGCGG [C19U A22C] | 1.15 |
| AACACUGCCAACGUCGGUCCCAAGCCCGGAUAAAAGUGGAGGGGGCGG [U12C C14U] | 1.06 |
| AACACUGCCAAUGCCGGUCACAAGCCCGGAUAACAGUGGAGGGGGCGG [C20A A34C] | 0.102 |
| AACACUGCCAAUGCCGGUCCCAAGCCCGGAUAAAAGUGGAGGGAGCGU [G44A G48U] | 1.08 |
| AACACUGCCAAUGCCGGUCCCAAGCCCGGAUAAAACCGGAGGGGGCGG [G36C U37C] | 0.123 |
| AAAACUGCCAAUGCAGGUCCCAAGCCCGGAUAAAAGUGGAGGGGGCGG [C3A C15A] | 0.101 |
| AACACUGCCAAUGCCGGUCCCAAGCCCGGAUAACAGUGGAGGGGGAGG [A34C C46A] | 0.142 |
| AACCCUGGCAAUGCCGGUCCCAAGCCCGGAUAAAAGUGGAGGGGGCGG [A4C C8G] | 0.071 |
| AACACUGGCAAUGCCGGUCCCAAGCCCGGAGAAAAGUGGAGGGGGCGG [C8G U31G] | 0.464 |
| AACACUGCCAAUAACGGUCCCAAGCCCGGAUAAAAGUGGAGGGGGCGG [G13A C14A] | 0.685 |
| AACACUGCCAAUGCCGGUCCCAAGCGCGGGUAAAAGUGGAGGGGGCGG [C26G A30G] | 0.214 |
| AACACUGACAAUGCCGGUCCCCAGCCCGGAUAAAAGUGGAGGGGGCGG [C8A A22C] | 0.45 |
| AACACUGCCAAUGCCGGUCCAAAGCCCCGAUAAAAGUGGAGGGGGCGG [C21A G28C] | 0.149 |
| AACACUGCCAAUGCCGGUCUCAAGCCCGGAUAAAAGUGGAGGGCGCGG [C20U G44C] | 0.816 |
| AUCACUGCCAAUGCCGGACCCAAGCCCGGAUAAAAGUGGAGGGGGCGG [A2U U18A] | 0.0781 |
| AACACUGCCACUGCGGGUCCCAAGCCCGGAUAAAAGUGGAGGGGGCGG [A11C C15G] | 0.0591 |
| AACACUGCCAAUGCCGGUCCCAAGCCCGGAUAAAAGUGGAGGGGGCCC [G47C G48C] | 0.799 |
| AACACUGCCAAUGCCGGUCGCAAGCCCGGAUAAAAGUGGAGGGGCCGG [C20G G45C] | 0.136 |
| AACAGUGCCAAUGGCGGUCCCAAGCCCGGAUAAAAGUGGAGGGGGCGG [C5G C14G] | 0.0784 |
| UCCACUGCCAAUGCCGGUCCCAAGCCCGGAUAAAAGUGGAGGGGGCGG [A1U A2C] | 0.118 |
| AACACUGCCAAUGCAGGUCCCUAGCCCGGAUAAAAGUGGAGGGGGCGG [C15A A22U] | 0.24 |
| AACACUGCCAAUGCCGGUCCCGAGCCCGGAUAAAAGUGGAGGGGGCCG [A22G G47C] | 0.128 |
| AACACUGCCCAUGCCGGUCCCAAGCCCGGUUAAAAGUGGAGGGGGCGG [A10C A30U] | 1.11 |
| AACUCUUCCAAUGCCGGUCCCAAGCCCGGAUAAAAGUGGAGGGGGCGG [A4U G7U] | 0.0685 |
| AACACUGCCAAUGCCGUUCCGAAGCCCGGAUAAAAGUGGAGGGGGCGG [G17U C21G] | 0.064 |
| AACACUGCCAAUGCCGGUCCCAAGCCCGGGUAAAAGUGGAGGGGCCGG [A30G G45C] | 0.571 |
| AACACUGCCAAUGCCGGUCCCCAGCCCGUAUAAAAGUGGAGGGGGCGG [A22C G29U] | 0.89 |
| AACACUGCCAAUGCCAGACCCAAGCCCGGAUAAAAGUGGAGGGGGCGG [G16A U18A] | 0.482 |
| AACACUGCCAAUGCCGGUCCCAAGCACGGAUCAAAGUGGAGGGGGCGG [C26A A32C] | 0.575 |
| AUCACUGCUAAUGCCGGUCCCAAGCCCGGAUAAAAGUGGAGGGGGCGG [A2U C9U] | 0.133 |
| AACACUGCCAAUGCUGGUACCAAGCCCGGAUAAAAGUGGAGGGGGCGG [C15U C19A] | 0.228 |
| AACACUGCCAAGGCCGGUCCCAAGCCCGGAUAAAAGUGGAGAGGGCGG [U12G G42A] | 0.494 |
| AACACUGCCAAUGCCGGUCCUAAGCCCGGAUAAAAGUGGAGGCGGCGG [C21U G43C] | 0.0867 |
| AACACUGCCAAUGCCGGUCCCAAGCGCUGAUAAAAGUGGAGGGGGCGG [C26G G28U] | 0.0926 |
| AACACUGCCAAUGCCGGUCCCAAGCCCGGAUAAUAGUGGAGGGGCCGG [A34U G45C] | 0.295 |
| AACACCGCCAAUGCCGGUCCCAAGCCCGGAUAAAAGUGGAAGGGGCGG [U6C G41A] | 0.117 |
| AACACUCCCAAUGCCGGUCCCACGCCCGGAUAAAAGUGGAGGGGGCGG [G7C A23C] | 0.0613 |
| AACACUGCCAAUGCCGGUCCGAAGCCCGGAUAAGAGUGGAGGGGGCGG [C21G A34G] | 0.0977 |
| AAGACUGCCAAUGCCGGGCCCAAGCCCGGAUAAAAGUGGAGGGGGCGG [C3G U18G] | 0.0365 |
| AACACUGCCAAUACCGGUCCCAAGCCUGGAUAAAAGUGGAGGGGGCGG [G13A C27U] | 0.482 |
| AACACUGCCAUUGCCGGUCCCAAGCCCGGAUAAAAUUGGAGGGGGCGG [A11U G36U] | 0.849 |
| AACACUGCCAAAGCCGGUCCCAAGCCCGGAUAACAGUGGAGGGGGCGG [U12A A34C] | 0.36 |
| AACACUGCCAAUGCCGGGCCCAAGCCCGGAUAAAAGUGGAGGGGGAGG [U18G C46A] | 0.0573 |
| AACACUGCCAAUGCCGGUCCCAAGCCCCGAUAAAAGUGGAGGGGGAGG [G28C C46A] | 0.684 |
| AACACUGCCAAUGCCGAUCCCAAGCCCGGAUAAAAGUGGAGGGGACGG [G17A G45A] | 0.386 |
| AACAUUGCCAAUGCCGGUCCCAAGCCGGGAUAAAAGUGGAGGGGGCGG [C5U C27G] | 0.0666 |
| AACACUGCCAAUGCCAGUCCCAAGCCCGGAUAAAAGUGGAGGGGGCAG [G16A G47A] | 0.702 |
| UACACUGCCAAUGCCGGUCCCAAGCCCGGAUAAAAGUGGAGGGUGCGG [A1U G44U] | 0.0595 |
| AACACUGCCAAUGUCGGUCACAAGCCCGGAUAAAAGUGGAGGGGGCGG [C14U C20A] | 0.154 |
| AACACUGCCAAUGCCGGUCCCAAGCCCGUAUAAAAGUGGAGAGGGCGG [G29U G42A] | 0.224 |
| AACACUGCCAAUGCCGGUCCCCACCCCGGAUAAAAGUGGAGGGGGCGG [A22C G24C] | 0.0817 |
| AACACUGCCAAUGCCGGUCCCUAGCCCGGAUGAAAGUGGAGGGGGCGG [A22U A32G] | 0.786 |
| AACACUGCCAAUGCCGGUCCCAAGCCCCGCUAAAAGUGGAGGGGGCGG [G28C A30C] | 0.848 |
| CACACUGCCAAUGCCGGUCCCAAGCCCGGAUAAAAGUGGAGGGGGAGG [A1C C46A] | 0.148 |
| AACACUGCCAAUGCCGGUCCCAAGCCCGGAUAAAAAUGGAAGGGGCGG [G36A G41A] | 0.13 |
| AACACUGCCAAUGCCGGUACCAAGCCCGGUUAAAAGUGGAGGGGGCGG [C19A A30U] | 0.349 |
| AACACUGCCAAUUCCGGUCCCAAGCCCGGAAAAAAGUGGAGGGGGCGG [G13U U31A] | 0.43 |
| AACACUGCCAACGCCGGUCCCAAGCCCGCAUAAAAGUGGAGGGGGCGG [U12C G29C] | 0.877 |
| AACAGUGCCAAUGCCGGUCCCAAGCCCGGAUAAAAGUGGAGAGGGCGG [C5G G42A] | 0.108 |
| AACACUGCCAAUGCCGGUCCCAAGCCCGGGUAAAGGUGGAGGGGGCGG [A30G A35G] | 0.869 |
| AAGACUGCCAAUGCCGGUCCCAAGCCCGGAUCAAAGUGGAGGGGGCGG [C3G A32C] | 0.379 |
| AACACUGCCAAUACCGGUCCGAAGCCCGGAUAAAAGUGGAGGGGGCGG [G13A C21G] | 0.105 |
| AACACUGCCAAUGCCGGUCCCAAGCCCGGAUAAAAGCGGUGGGGGCGG [U37C A40U] | 0.0912 |
| AACACUGCCAAUGCCCGUCCCAAGCCCGGAUAAAAGUUGAGGGGGCGG [G16C G38U] | 0.535 |
| AACACUGCCAAUGCCGGGCCCAAGCCCGGUUAAAAGUGGAGGGGGCGG [U18G A30U] | 0.0738 |
| AACACUGCCAAUGCCGGUACCUAGCCCGGAUAAAAGUGGAGGGGGCGG [C19A A22U] | 0.11 |
| AACACUGCCAAUGCCGGUCCCAAGCCCGCAUAAAAGUGGACGGGGCGG [G29C G41C] | 0.0927 |
| AACACCGCCAAUGCCGGUCCCAAGCCCUGAUAAAAGUGGAGGGGGCGG [U6C G28U] | 0.295 |
| AAGACUGCCAAUGCCGGUCCCAAGCCCGGAUAAAAGCGGAGGGGGCGG [C3G U37C] | 0.18 |
